Test system: U2OS
Assay: Multiplex assay against U2OS
Type: toxicity, cell-based
Conditions: human, 48 h, 1 µM, compound concentration 1 uM, replicate 2
Population Mitotic Cells (%) for assorted molecules
Provide a numeric answer, followed by its unit.

Examples with answers:
O=C1COc2nccc(-c3ccccc3F)c2CN1Cc1cc(C(F)(F)F)cc(C(F)(F)F)c1 :: 23%
CN1CCN(c2nc3cc(C(F)(F)F)ccc3n3cccc23)CC1.O=C(O)/C=C\C(=O)O.O=C(O)/C=C\C(=O)O :: 14%
O=C(NCC(=O)N1CC[C@H](N[C@H]2CC[C@@](O)(c3ccc(-c4ncccn4)cn3)CC2)C1)c1cccc(C(F)(F)F)c1 :: 4%
CCCN1CCC[C@@H]2Cc3n[nH]cc3C[C@H]21.Cl [QUINPIROLE HYDROCHLORIDE] :: 21%
CC(C)(C)c1ccc(S(=O)(=O)Nc2ccc(Cl)cc2C(=O)c2cc[n+]([O-])cc2)cc1 :: 15%

QUERY: What value of Population Mitotic Cells (%) has been reported for the following molecule? CSCC[C@H](NC=O)C(=O)N[C@@H](CC(C)C)C(=O)N[C@@H](Cc1ccccc1)C(=O)O
RESULT: 3%

QUERY: Which Population Mitotic Cells (%) value is on record for Oc1c(CN2CCN(c3ccccn3)CC2)cc(Cl)c2cccnc12 ?
RESULT: 12%

----------
Test system: U2OS
Assay: Multiplex assay against U2OS
Assay type: toxicity, cell-based
Conditions: human, 12 h, 10 µM, compound concentration 10 uM, replicate 2
readout-label: Population Tubulin-Different-Phenotype (%)
Provide only the numeric value, understood in %.

Study these solved cases before continuing.
Cc1ccc(C(C)(O)c2nc3ccccc3s2)c(C)c1 (stereo unspecified) :: 1
O=C(O)Cc1ccccc1Nc1c(Cl)cccc1Cl [DICLOFENAC] :: 8
O=C(NCC(=O)N1CC[C@H](N[C@H]2CC[C@@](O)(c3ccc(-c4ncccn4)cn3)CC2)C1)c1cccc(C(F)(F)F)c1 [PF-4136309] :: 11

QUERY: Query the reported Population Tubulin-Different-Phenotype (%) for U2OS; item: Cc1ccccc1C(=O)Nc1ccc(C(=O)N2CCCC(N(C)C)c3ccccc32)cc1.Cl (stereo unspecified)
RESULT: 15

QUERY: API: value(readout= Population Tubulin-Different-Phenotype (%), system= U2OS, query= CC1(COc2ccc3c(c2)ncn3-c2ccc3cccc(N4CCC(N)CC4)c3n2)COC1 [CRENOLANIB] )
RESULT: 85

QUERY: Test system U2OS; read-out Population Tubulin-Different-Phenotype (%); what value for CN1CCN2c3ncccc3Cc3ccccc3C2C1 (stereo unspecified) [MIRTAZAPINE] ?
RESULT: 0

QUERY: What value of Population Tubulin-Different-Phenotype (%) on U2OS does c1cc(OCCCN2CCCCC2)ccc1CN1CCCCC1 [JNJ-5207852] have?
RESULT: 6

QUERY: // map N[C@@]1(C(=O)O)CO[C@H]2[C@H](C(=O)O)[C@H]21 [LY-379268] to recorded Population Tubulin-Different-Phenotype (%) (system: U2OS)
RESULT: 1

QUERY: Provide value of Population Tubulin-Different-Phenotype (%) for this record tested with U2OS: COc1c(C)cc(NC(=O)c2nn(Cc3ccc(F)cc3)c3c2CN(C(=O)c2ccc[nH]2)C[C@]3(C)C(N)=O)cc1C
RESULT: 100

QUERY: Lookup: Population Tubulin-Different-Phenotype (%) / U2OS / CCCN1CCC[C@@H]2Cc3n[nH]cc3C[C@H]21.Cl [QUINPIROLE HYDROCHLORIDE]
RESULT: 2

QUERY: State its Population Tubulin-Different-Phenotype (%) on U2OS: CC[C@H]1OC(=O)[C@H](C)[C@@H](O[C@H]2C[C@@](C)(OC)[C@@H](O)[C@H](C)O2)[C@H](C)[C@@H](O[C@@H]2O[C@H](C)C[C@H](N(C)C)[C@H]2O)[C@@]2(C)CC(C)=C(O2)[C@H](C)[C@@H](O)[C@]1(C)O
RESULT: 96

Reference source for all entries: ChEMBL document CHEMBL5058577
